test system: NCI-H226 lung; assay: NCI tumour cell line growth inhibition, 48 h
So I've got a bunch of compounds here, and I need their TGI values.

Guide cases for TGI, answers given:
Hello, I am looking for reported TGI with NCI-H226 lung for c1ccc2c(c1)Nc1ccncc1S2 . Could you help?
> 100 µM

Form field: TGI recorded for CCOC(=O)C(C(=O)OCC)=C1NC2(c3ccccc3Nc3ccccc32)C(C#N)S1 (stereo unspecified) with NCI-H226 lung (enter value)
26.2 µM

Query for NCI-H226 lung: what TGI does the record show for COc1ccc(/C=C(\C#N)n2nnc3c(F)cccc32)cc1 ?
> 100 µM

Kindly state the measured TGI obtained for CC1(c2nc3ccccc3[nH]2)CCC(C(=O)O)C(C)(C)O1 (stereo unspecified) with NCI-H226 lung.
> 100 µM

Dear colleague, could you send me TGI for each of the items below? Thanks.
1. CC(C)C(C(=O)O)N1C(=O)c2ccccc2C1=O (stereo unspecified)
2. CC(C)=CCN1CC(C)C(=O)Nc2ccccc21 (stereo unspecified)

["> 100 µM", "> 100 µM"]

====

tested on: DMS 273 small cell lung; test: NCI tumour cell line growth inhibition, 48 h
observationType: TGI

Some solved entries appear below for comparison.
API: value(readout= TGI, system= DMS 273 small cell lung, query= Nc1[nH]c(=O)nc2c1cnn2C1CCCCO1 (configuration not stated) )
> 100 µM

Recall the recorded TGI for CCCCCCCCCCCCC(Br)C(=O)NCC(N)=O (configuration not stated) with DMS 273 small cell lung and state it.
25 µM

// lookup TGI | system=DMS 273 small cell lung | key= CC(C)(Br)C(=O)C(Br)Br
26.9 µM

Look at each compound and report its TGI.
1. NC(=O)NNC(=O)NC12CC3CC(CC(C3)C1)C2
2. Cc1ccc(C)c(N2C(=O)C(=O)C(c3nc4ccccc4s3)/C(=N/NC(=O)NN)C2=O)c1 (configuration not stated)
3. Cc1ccccc1NC(=O)C(=O)C(C#N)c1ccccc1C (configuration not stated)
4. COc1cc(C(C)O)c[n+](Cc2ccccc2)c1 (configuration not stated)
5. O=C1Nc2ccccc2N=CC1NC(=O)C(c1ccccc1)c1ccccc1 (configuration not stated)
6. COC(=O)[C@@]1(C(C)CC(=O)O)CCCCC1=O (some centres not stated)

> 100 µM
> 100 µM
> 100 µM
> 100 µM
> 100 µM
39.7 µM

Fill in TGI for each of the 3 compounds listed.
1. CC1(c2ccccc2Cl)C(C#N)C(=O)NC(=O)C1C#N (configuration not stated)
2. CCOP1(=O)C=C(C)C(Cl)=C(C)C1 (configuration not stated)
3. CN1C(c2ccccc2)CC(=O)C(N)C1c1ccccc1 (configuration not stated)

["> 100 µM", "30.8 µM", "> 61.7 µM"]

====

system: HCC-2998 colon; assay: NCI tumour cell line growth inhibition, 48 h
Would you mind telling me the reported TGI of each entry?

Worked cases, answers included:
Give its TGI value. Item: COC(=O)CCCCC(=O)c1c(C)[nH]c(/C=C2\N=C(c3ccc[nH]3)C=C2OC)c1C
4.19 µM

Requested read-out: TGI. Entry: O=C(/C=C/c1cccc(O)c1)c1cccc(-n2cc(-c3ccccc3)[nH]c2=O)c1
20.2 µM

Endpoint output: TGI of C[CH2][Sn]([CH2]C)([O]C(=O)c1ccccc1OC)[O][Sn]([CH2]C)([CH2]C)[O]C(=O)c1ccccc1OC . Value?
> 100 µM

Name the recorded TGI for Cc1ccc(C)c(N2C(=O)C(=O)C(c3nc4ccccc4s3)/C(=N/NC(=O)NN)C2=O)c1 (stereo unspecified) .
> 100 µM

So what's the measured TGI for this one? O=c1[nH]cc(F)c(=O)n1C1OC(CO)C(O)C1O (stereo unspecified)
> 100 µM

Next:
I'd like to know its TGI. The compound in question is Cc1cn(CCCCC2=NCCCN2)c(=O)[nH]c1=O
> 32.9 µM

====

Please provide measured TGI for the entries that follow.
system: SF-539 CNS; experiment: NCI tumour cell line growth inhibition, 48 h
Answers are plain numbers, in µM.

For Cc1cccc2c3c(sc12)C(c1ccc(Cl)cc1)C(C#N)=C(N)O3 (configuration not stated) , what is its reported TGI?
1.14

Batch: TGI for all items listed.
1. CSc1nc2sc3c(c2c(=O)n1-c1ccc(C(C)C)cc1)CCC(=O)C3
2. CCN1CCC(O)(/C=C/c2ccccc2C)C(C(=O)/C=C/c2ccccc2C)C1 (configuration not stated)
3. CN(CCNCc1ccccn1)CCNCc1ccccn1
4. N#CC1=C(/N=C/c2ccccc2)Oc2c(ccc3ccccc23)C1c1ccccc1 (configuration not stated)

[4.1, 4.28, 5.33, 2.06]

====

test system: LOX IMVI melanoma; experiment: NCI tumour cell line growth inhibition, 48 h
# TGI >= 10 µM gives fulfilled, anything below gives not fulfilled

Would you please look over these solved cases?
# bool: TGI of Cc1cc(N(CCC#N)CCC#N)ccc1/C(N=Nc1cccc(Cl)c1)=N/NC(=O)c1cc(Cl)ccc1O >= 10 µM
fulfilled

I'd appreciate it if you could say whether O=C(/C=C/c1cccc(O)c1)c1cccc(-n2cc(-c3ccccc3)[nH]c2=O)c1 has TGI at least equal to 10 µM.
not fulfilled

Hello, I need to know if CC(=O)Oc1ccc(/C=C/C(=O)OCCCOC(=O)/C=C/c2ccc(OC(C)=O)c(OC(C)=O)c2)cc1OC(C)=O has measured TGI not below 10 µM. Thanks!
fulfilled

TGI >= 10 µM for Nc1nc(Nc2ccccc2SSc2ccccc2Nc2nc(N)nc(C(Cl)(Cl)Cl)n2)nc(C(Cl)(Cl)Cl)n1 ?
not fulfilled

Does the reported TGI for O=C1C(Cl)C2(CC(/C=C/c3ccccc3)=NN2c2cccc(S(=O)(=O)O)c2)N1c1nc2ccccc2s1 (stereo not drawn) fall at or above the 10 µM mark?
fulfilled

New cases:
Does the reported TGI for O=C(O)c1cccc(C(=O)O)c1S(=O)Cc1ccccc1 (stereo not drawn) fall at or above the 10 µM mark?
fulfilled

Given the entry c1cnc2c(c1)ccc1cccnc12 , answer whether its TGI meets or surpasses 10 µM.
fulfilled

Could you tell me if the measured TGI of Cc1cc(N(CCCNc2ccnc3cc(Cl)ccc23)Cc2ccco2)nc(N2CCN(C)CC2)n1 reaches 10 µM or more?
not fulfilled

Does the reported TGI for Cc1ccc(-c2nc([P+](c3ccccc3)(c3ccccc3)c3ccccc3)c(S(=O)(=O)c3ccc(C)cc3)o2)cc1 fall at or above the 10 µM mark?
not fulfilled

Does the compound COc1ccc(N(CC(=O)NCCC[Te]c2ccccc2)C(=O)CNC(=O)OC(C)(C)C)cc1 have recorded TGI that is 10 µM or more?
not fulfilled

Assess whether reported TGI for COc1ccc2c(c1)c1c(n2CCN(C)C)-c2ccccc2CC1 sits at 10 µM or higher.
fulfilled

Decide: TGI of CC(C)(C)C1=CC(C)(n2[nH]c(=O)n(-c3ccccc3)c2=O)C=C(C(C)(C)C)C1=O >= 10 µM?
fulfilled

Is reported TGI greater than or equal to 10 µM here: CCN(CC)CCCCCCNc1cc(OC)cc2cccnc12
not fulfilled

====

Exercise: for every item that follows, state its recorded TGI.
test system: EKVX NSCLC; assay: NCI tumour cell line growth inhibition, 48 h

Examples with answers:
Reported TGI for COc1ccc(CCC2c3cc(OC)c(OC)cc3CCN2C)cc1OC (configuration not stated) : what is it?
> 100 µM

Can you look up the measured TGI of C/C(=N/N=C(\[O-])c1ccncc1)C(F)(F)F.C/C(=N\N=C(/[O-])c1ccncc1)C(F)(F)F.[Ni+2] for me?
> 1 µM

Given the entry c1cnc2c(c1)ccc1cccnc12 , report its measured TGI.
> 78.6 µM

Which measured TGI value corresponds to CC(=O)Oc1ccc(/C=C/C(=O)OCCCOC(=O)/C=C/c2ccc(OC(C)=O)c(OC(C)=O)c2)cc1OC(C)=O ?
> 100 µM

Quick one: TGI of Oc1[nH]c2ccccc2c1N=NC(=S)Nc1ccccc1Cl ?
77.9 µM

Form field: reported TGI of O=C1OC(C(O)CO)C(O)=C1O (configuration not stated)
4390 µM

State recorded TGI for all listed compounds.
1. CCCCCO/N=C\c1c2c(O)c3c(O)c(C)c4c(c3c1O)C(=O)C(C)(O/C=C\C(OC)C(C)C(OC(C)=O)C(C)C(O)C(C)C(O)C(C)/C=C\C=C(\C)C(=O)N2)O4 (configuration not stated)
2. COc1ccc(NC(=O)C2CCC(CNS(=O)(=O)c3ccccc3)CC2)cc1OC (configuration not stated)
3. Cc1ccccc1NC(=O)C(=O)C(C#N)c1ccccc1C (configuration not stated)

["6.95 µM", "> 100 µM", "> 100 µM"]

====

tested on: OVCAR-4 ovarian; assay: NCI tumour cell line growth inhibition, 48 h
observationType: TGI

# annotated cases, reported TGI shown
What does the record list as TGI for Cc1ccc(-c2nc(N/N=C/C=C/c3ccccc3)c3ccccc3n2)cc1 ?
> 100 µM

Could you tell me which TGI is on file for O=C(c1nc2ccccc2[nH]c1=O)C(O)c1ccccc1 (stereo not given) ?
> 100 µM

What does the record list as TGI for c1ccc(CCc2cccnc2)nc1 ?
> 100 µM

Please give the measured TGI for this molecule: CC(=O)NCc1cccc(C#Cc2cncnc2Nc2ccc(OCc3cccc(F)c3)c(Cl)c2)c1
> 25 µM

Which TGI is listed for O=C(Nc1cccc(-n2cc(-c3ccncc3)c(-c3cc(O)cc(Cl)c3)n2)c1)c1cc(C(F)(F)F)cc(C(F)(F)F)c1 ?
> 100 µM

I have this molecule here, [O-]c1c2cc(-[n+]3c(-c4ccccc4)cc(-c4ccccc4)cc3-c3ccccc3)cc1COCCOCCOCCOCCOC2 , and I need its recorded TGI.
> 100 µM

Can you look up the measured TGI of O=C1C(Cl)C2(CC(/C=C/c3ccccc3)=NN2c2cccc(S(=O)(=O)O)c2)N1c1nc2ccccc2s1 (stereo not given) for me?
31.9 µM

Can you look up the measured TGI of Cc1cc[n+]2c(c1)-c1cc(C)cc[n+]1CC2 for me?
> 100 µM

Quick request: TGI for each listed item, please.
1. Nc1nc(Nc2ccccc2)c2[nH]cnc2n1
2. Oc1[nH]c2ccccc2c1N=NC(=S)Nc1ccccc1Cl

1. > 100 µM
2. 63.7 µM
